# Tested on: NQO1 activation in BEAS-2B cells
# assay method text: BEAS-2B cellular MTT assay of NQO1 activation, 0% HSA
# Format: cell-based
# experimental setup: Homo sapiens, Serum Free W, read-out: BEAS EC50 (nM) Serum Free W
Measured EC50, listed per entry for reference.
measured attribute: EC50 (nM)

>  <mol smiles>
Cc1cc2cnc1OCC/C=C/Cc1ccc(cc1)C(=O)N1CCc3ccc(cc3C1)[C@@H]2[C@H](C)C(=O)O

>  <numeric result>
4.7

$$$$
>  <mol smiles>
Cc1c2cnc3c1nnn3CCCCCc1ccc(cc1)C(=O)N1CCc3ccc(cc3C1)[C@@H]2CC(=O)O

>  <numeric result>
7.6

$$$$
>  <mol smiles>
Cc1c2n(C)c3ccc(cc13)C/C=C\CCCn1nnc3c(C)c(cnc31)[C@H](CC(=O)O)c1ccc3c(c1)CN(CC3)C2=O

>  <numeric result>
4.4

$$$$
>  <mol smiles>
Cc1c2ccc3c1nnn3CCCCCc1cnc3c(c1)cc(n3C)C(=O)N1CCc3ccc(cc3C1)[C@@H]2CC(=O)O

>  <numeric result>
2.9

$$$$
